% antibody positive transfected cells listing for selected binders.
target: T1, human CD3ε expressed alone on HEK293F cells (human, UniProt P07766 23-207); test: flow cytometry, transfected HEK293F
T1 construct: also called huCD3ε
T1 sequence (P07766 23-207): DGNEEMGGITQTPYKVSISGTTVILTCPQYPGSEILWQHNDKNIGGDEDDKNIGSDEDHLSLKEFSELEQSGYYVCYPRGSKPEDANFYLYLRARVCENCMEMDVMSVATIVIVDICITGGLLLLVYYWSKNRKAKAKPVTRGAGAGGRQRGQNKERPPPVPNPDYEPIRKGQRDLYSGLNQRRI
Your answer is read as %, so omit the unit and give the number.

Would you please look over these solved cases?
| BINDER | % antibody positive transfected cells, % |
| --- | --- |
| 4E7-C9 Fab (Fab, V domains shown, also called BDX-4E7-C9) VH: EVQVVETGGSLVQPGKSLKLTCATSGFTFSNAWMHWVRQSPEKQLEWVAQIKDKSNNYATYYAESLKGRFTISRDDPKRSIYLQMNSLREEDTAIYYCRYVHYGIGYAMDAWGQGTSVTVSS VL: DVVMTQTPVSLSVSLGGQVSISCRSSQSLEHNNGNTYLSWYLQKPGQSPQPLIYKVSNRFSGISDRFSGSGSGTDFTLKISRVEPDDLGVYYCGQGTQYPFTFGPGTKLELKR | 69 |
| 11F9-F8 Fab (Fab, V domains shown, also called 11F9-F8-huFab) VH: EVQLVETGGTLVQPGKSLKLTCATSGFTFSNAWMHWVRQSPEKQLEWVAQIKAKSNNYATYYAESVKGRFTISRDDSKTSVYLQLNSLREEDTAIYYCRGTQYGYNPFDYWGQGVMVTVSS VL: DVVLTQTPVSLSVSLGGQVSISCRSSQSLVHNNGNTYLSWSLQKPGQSPQVLIYKVSNRFSGISNRFSGSGSGTDFTLKISRVEPDDLGVYYCGQGAHYPFTFGSGTKLEIK | 97 |

Continue with the next binder.
Value of measured % antibody positive transfected cells for the entry 4B4-D7 Fab (Fab, V domains shown, also called BDW-4B4-D7) VH: EVQLVETGGRLVQPGRSLKLTCATSGFTFSNAWMHWVRQSPEKQLEWVAQIKARSNNYATYYAESVKGRFTISRDDSKSTIYLQMNSLKEEDTAIYYCRGTYYASKPFDYWGQGVMVTVSS VL: DVVMTQTPVSLSVSLGGQVSISCRSSQSLVHDNGNTYLSWSLQRPGQSPQVLIYKVSNRFSGTSDRFTGSGSGTDFTLKISRVEPDDLGVYYCGQGTQYPFTFGSGTKLEIKR : 71.5
